# experimental details: Safety and tolerability study, single-dose pharmacokinetics (Parts A, B, C)
# Assay type: in vivo, human
# assay setup: male, human, plasma, oral, 5 mg, Part A, healthy young men, 5 mg single dose, mean (CV %)
metric: Cmax (ng/mL)
Output spec: scalar in ng/mL, unitless text.

Task: Endpoint output: Cmax of Cc1ccc(C(=O)Nc2nc(-c3ccco3)c(C(=O)C3CCOCC3)s2)cn1 . Value?
Result: 423

###

# experimental details: Safety and tolerability study, single-dose pharmacokinetics (Parts A, B, C)
# Type: in vivo, human
# assay setup: male, human, plasma, oral, 10 mg, Part B, healthy elderly men, arithmetic mean
metric: Cmax (ng/mL)
Output spec: scalar in ng/mL, unitless text.

Task: Endpoint output: Cmax of Cc1ccc(C(=O)Nc2nc(-c3ccco3)c(C(=O)C3CCOCC3)s2)cn1 . Value?
Result: 652

###

# experimental details: Safety and tolerability study, single-dose pharmacokinetics (Parts A, B, C)
# Format: in vivo, human
# assay setup: male, human, plasma, oral, 5 mg, Part A, healthy young men, 5 mg single dose, median (min, max); read-out: tmax
metric: Tmax (h)
Output spec: scalar in h, unitless text.

Task: Endpoint output: Tmax of Cc1ccc(C(=O)Nc2nc(-c3ccco3)c(C(=O)C3CCOCC3)s2)cn1 . Value?
Result: 1.75

###

# experimental details: Safety and tolerability study, single-dose pharmacokinetics (Parts A, B, C)
# Assay type: in vivo, human
# assay setup: both sexes, human, plasma, oral, 5 mg, Part B, healthy elderly overall, 5 mg, arithmetic mean; read-out: t1/2 (converted)
metric: half-life (h)
Output spec: scalar in h, unitless text.

Task: Endpoint output: half-life of Cc1ccc(C(=O)Nc2nc(-c3ccco3)c(C(=O)C3CCOCC3)s2)cn1 [Compound 504] . Value?
Result: 22

###

# assayed system: A1 receptor (Canis lupus familiaris, UniProt P11616)
# Sequence (P11616 1-326): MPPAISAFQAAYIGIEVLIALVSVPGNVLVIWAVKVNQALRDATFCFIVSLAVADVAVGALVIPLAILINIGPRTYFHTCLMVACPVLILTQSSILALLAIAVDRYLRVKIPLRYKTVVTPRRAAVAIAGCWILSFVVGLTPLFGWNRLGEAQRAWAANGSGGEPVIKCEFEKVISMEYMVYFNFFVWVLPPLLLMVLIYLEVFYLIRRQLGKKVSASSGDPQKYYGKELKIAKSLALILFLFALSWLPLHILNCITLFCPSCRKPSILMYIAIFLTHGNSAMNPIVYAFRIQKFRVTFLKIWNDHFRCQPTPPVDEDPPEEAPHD
metric: pKi
Just so you know, pKi here is -log10 of the concentration in molar units; reply with that number alone.

Task: Endpoint output: pKi of Cc1ccc(C(=O)Nc2nc(-c3ccco3)c(C(=O)C3CCOCC3)s2)cn1 [Compound 504] . Value?
Result: 6.35

###

# assayed system: A1 receptor (Rattus norvegicus, UniProt P25099)
# Sequence (P25099 1-326): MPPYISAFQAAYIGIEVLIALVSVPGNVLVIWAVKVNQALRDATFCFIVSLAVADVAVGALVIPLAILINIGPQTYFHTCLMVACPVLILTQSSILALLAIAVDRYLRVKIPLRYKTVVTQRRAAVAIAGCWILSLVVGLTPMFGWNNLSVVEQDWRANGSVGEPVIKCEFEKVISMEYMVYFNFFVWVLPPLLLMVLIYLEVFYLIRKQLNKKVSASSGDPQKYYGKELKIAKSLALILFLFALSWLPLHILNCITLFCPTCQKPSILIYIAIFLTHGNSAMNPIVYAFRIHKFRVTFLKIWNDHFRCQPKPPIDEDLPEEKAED
metric: pKi
Just so you know, pKi here is -log10 of the concentration in molar units; reply with that number alone.

Task: Lookup: pKi / A1 receptor (Rattus norvegicus, UniProt P25099) / Cc1ccc(C(=O)Nc2nc(-c3ccco3)c(C(=O)C3CCOCC3)s2)cn1 [Compound 504]
Result: 7.29
